Reported TΔS° values for a set of compounds
Molecular target: DHFR from E. coli (Escherichia coli)
Construct: made in house
Sequence (P0ABQ4 whole entry): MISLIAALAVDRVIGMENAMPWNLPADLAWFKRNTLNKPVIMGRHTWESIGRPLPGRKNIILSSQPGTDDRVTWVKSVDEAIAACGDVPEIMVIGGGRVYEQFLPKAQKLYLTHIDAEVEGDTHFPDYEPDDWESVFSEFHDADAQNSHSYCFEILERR
Assay: Fluorimetric binding assay, quenching of DHFR tryptophan emission (λexc = 280 nm)
Details: from van't Hoff analysis

compound	TΔS° (kcal/mol)
O=C(O)c1ccc(P(c2ccccc2)c2ccccc2)cc1.O=C(O)c1ccc(P(c2ccccc2)c2ccccc2)cc1.O=C(O)c1ccc(P(c2ccccc2)c2ccccc2)cc1.O=S(=O)([O][Au])C(F)(F)F [^4L3AuTfl]	1.17
O=C(O)c1ccc(P(c2ccccc2)c2ccccc2)cc1.O=C(O)c1ccc(P(c2ccccc2)c2ccccc2)cc1.O=C(O)c1ccc(P(c2ccccc2)c2ccccc2)cc1.[Cl][Au] [^4L3AuCl]	2.19
O=C(O)c1ccccc1P(c1ccccc1)c1ccccc1.O=C(O)c1ccccc1P(c1ccccc1)c1ccccc1.O=C(O)c1ccccc1P(c1ccccc1)c1ccccc1.[Cl][Au] [^2L3AuCl]	2.86
O=C(O)c1ccc(P(c2ccccc2)c2ccccc2)cc1.O=C(O)c1ccc(P(c2ccccc2)c2ccccc2)cc1.[Cl][Au] [^4L2AuCl, (4COOHPh-Ph2P)2AuCl]	5.29
